System: SNB-19 CNS
runDescription: NCI-60 one-dose screen, 48 h
testConditions: 10 µM
Compounds without any hit were thinned out: in the full panel of roughly 83,000, 20% have a hit. Active and inactive are the calls of the source. How the source made its calls: active means growth percent below 10; inactive means the rest.
Choose the fitting class; nothing outside True = active, False = inactive is accepted.

Completed entries (count: 2):
CN(C)c1ccc(/C=C/c2nc3ccccc3c(=O)n2CC(=O)Nc2ccc(Cl)cc2)cc1	False
O=C(Cc1ccc2c(c1)CN(C1CCC(=O)NC1=O)C2=O)NCc1cccc2ccccc12 (centres undefined)	True

What did this assay record as the result for `O=C(COc1ccc(NC(=O)Nc2ccc(Cl)cc2)cc1)N=Nc1c(O)[nH]c2ccc([N+](=O)[O-])cc12` ?
False

What did this assay record as the result for `O=c1cc(-c2ccccc2)oc2cc(OCCCNCc3ccccc3)cc(O)c12` ?
False

What did this assay record as the result for CN1C(=O)N(C)C2SC(N/N=C/c3ccc(F)cc3)=NC21 (centres undefined) ?
False

What did this assay record as the result for `Cc1cc(=O)oc2cc(OCCCCOc3ccc(/C=C/C(=O)Nc4cccc(Cl)c4)cc3)ccc12` ?
False

What did this assay record as the result for `N#Cc1ccc(-c2nn(-c3ccc(C(=O)O)cc3)cc2CNc2cc(Cl)cc(Cl)c2)cc1` ?
False
